System: MILI (PIWIL2) piRISC loaded with L1MC piRNA (26 nt);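 also: 1 nM active piRISC with 0.1 nM target library at 33 °C single turnover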
measurement notes: pre-steady-state target cleavage rate (min^-1); guide: L1MC piRNA 5'p-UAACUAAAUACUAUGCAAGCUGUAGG; higher = faster piRNA-guided slicing of the target
condition summary: auxiliary factor: none (no GTSF1)
Record form. Attribute: pre-steady-state target cleavage rate. Fill in for each entry.
Numbers only.

Sample records with pre-steady-state target cleavage rate:
UCCUGGAACAGCUUGCAUAGUAUCUUAGUUA; 0.00791
UCCUGGAACAGCUAGCAUUGUAUUUAGUUA; 0.0074
UCCUGGAUCAGCUUGCAUAGUAUUUAUGUUA; 0.00471
UCCUGGUAGAGCUUGCAUAGUUUUUAGUUA; 0.00498
UCCUGGAACACCUUGCAUAGUAAUUAGUUA; 0.00362
UCCUGGAUGUCGAAGCAUAGUAGUUUAGUUA; 0.00276

Data request, read-out pre-steady-state target cleavage rate, for `UCCUGGUUGAGCUUGCAUAGUAUUUAGUUA`
0.0113

---

Give measured pre-steady-state target cleavage rate for each item. Keep answers brief.
Tested on: MILI (PIWIL2) piRISC loaded with L1MC piRNA (26 nt);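 also: 1 nM active piRISC with 0.1 nM target library at 33 °C single turnover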
measurement notes: pre-steady-state target cleavage rate (min^-1); guide: L1MC piRNA 5'p-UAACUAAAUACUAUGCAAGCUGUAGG; higher = faster piRNA-guided slicing of the target
condition summary: auxiliary factor: 500 nM mouse GTSF1
One number for each entry.

Would you please look over these solved cases?
UCCUCCUACAGCUUGCAUAGCUAUUUAGUUA; 0.0126
UCCUGCUCCAGCUUGCAUAGUAUUUAGUUA; 0.256
UCCUGGAACAGCUUGCAUAGUUUUUAGAUA; 0.0168
UCCUGGAAGAGCUUGCAUAGAAUUUAGUUA; 0.0498
UCCUCCUACAGCUUCCAUACUAUUUAGUUA; 0.0171
UCCUGGAUCAGCUUGCAUUGUAUUUUGUUA; 0.1

Would you be so kind as to report pre-steady-state target cleavage rate for each listed record?
1. UCCUGGAUGACCUUGCAUUGUAUUUAGUUA
2. UCCUGCUACAGCUUGCAUACGUAUUUAGUUA
3. UCCUGGAUGUGCUUGCGUAGUAUUUAGUUA
4. UCCUCCUUCAGCUUGCAUUGUAUUUAGUUA
5. UCCUGGUACAGCUUCCUUAGUAUUUAGUUA

1. 0.0617
2. 0.00697
3. 0.0451
4. 0.226
5. 0.288

---

System: MILI (PIWIL2) piRISC loaded with L1MC piRNA (26 nt);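 also: 1 nM active piRISC with 0.1 nM target library at 33 °C single turnover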
measurement notes: pre-steady-state target cleavage rate (min^-1); guide: L1MC piRNA 5'p-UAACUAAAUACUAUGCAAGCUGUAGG; MIWI and MILI are mouse PIWI proteins and EfPiwi is from a freshwater sponge; tags in brackets are library labels; higher = faster piRNA-guided slicing of the target
condition summary: auxiliary factor: none (no GTSF1)
The following ranges of pre-steady-state target cleavage rate define the classes used here: Low (below 0.005), Medium (0.005 to below 0.007), High (0.007 or more)

# count of solved cases: 5
UCCUGGAUGUCGUAGCAUAGUAUAUAGUUA; Low
UCCUGGAUGAGCCUGCAUAGUAUUUAGUUA; High
UCCUGGAUCAGCUUGUAUAGUAUUUAGUUA; High
UCCUGGAUGUCGAACGUAUCUAUAAAGUUA; Low
UCCUCCUACAGCUUGCAUAGUAUUUAGUUA [g2:g26:cont:t1A]; High

Now for another entry.
// bin(item) where item = `UCCUGGAUGCGCUUGCAUAGUAUUUAGUUA`
High
